I'd be grateful if you could share measured ELISA data for these entries.
# SYSTEM UNDER TEST: T1, CD81 (UniProt P60033 1-236, limits assumed)
# T1 construct: whole, on cells; also called CD81 receptor
# T1 sequence (looked up): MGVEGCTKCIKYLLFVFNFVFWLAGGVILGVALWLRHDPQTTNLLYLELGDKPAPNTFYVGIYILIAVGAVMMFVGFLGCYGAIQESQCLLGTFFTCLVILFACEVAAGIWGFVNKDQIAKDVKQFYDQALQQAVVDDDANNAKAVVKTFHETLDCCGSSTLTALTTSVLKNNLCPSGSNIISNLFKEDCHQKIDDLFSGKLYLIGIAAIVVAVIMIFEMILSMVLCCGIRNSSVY
# PROTOCOL NOTES: cell ELISA;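 note: antibody binding to HuH7 cells expressing CD81 versus a CD81-negative HuH7 control line, bound antibody detected by secondary reagent, absorbance at 450 nm with 620 nm reference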
Please give only the number in your answer, with no unit.

[in] I'd like to know its ELISA data. The binder in question is CD81K13 HC 5b-hVH_1_69 / LC CD81K13 (antibody, V domains shown, human constant region) VH: QVQLVQSGAELVKPGSSVKVSCKASGFNFKDSYLHWVRQAPGQGLEWMGRIDTGNGNVKFDPKFQGRVTITTDESTSTAYMELSSLRSEDTAVYYCVPYGYGFHSWGQGTLVTVSS VL: DIQMTQSPASLSVSVGETVTITCRASENIYRTLAWYLQKQGKSPQLLVYGATTLADGVPSRFSGSGSGTQYYLKINSLQSEDFGTYHCQHFWGTPWTFGGGTKVEIK
[out] 0.813

[in] # query: ELISA data of entry CD81K13 HC 06-hVH_1_3 / LC 05-hVK_1_39 (antibody, V domains shown, human constant region) VH: QVQLVQSGAEVKKPGASVKVSCKASGYTFKDSYLHWVRQAPGQRLEWMGRIDTGNGNVKFDPKFQGRVTITTDTSASTAYMELSSLRSEDTAVYYCAPYGYGFHSWGQGTLVTVSS VL: DIQMTQSPSSLSASVGDRVTITCRASENIYRTLAWYQQKPGKAPKLLIYAATTLASGVPSRFSGSGSGTDFTLTISSLQPEDFATYYCQHFWGTPWTFGQGTKVEIK
[out] 0.315

[in] Param item = CD81K13 HC 03-hVH_1_69 / LC 5b-hVK_1_39-GA (antibody, V domains shown, human constant region) VH: QVQLVQSGAEVKKPGSSVKVSCKASGFNFKDSYLHWVRQAPGQGLEWMGRIDTGNGNVKYAQKFQGRVTITADESTSTAYMELSSLRSEDTAVYYCAPYGYGFHSWGQGTLVTVSS VL: DIQMTQSPSSLSASVGDRVTITCRASENIYRTLAWYQQKPGKAPKLLIYGATTLADGVPSRFSGSGSGTDFTLTISSLQPEDFATYYCQHFWGTPWTFGQGTKVEIK ; retrieve measured ELISA data.
[out] 0.552

[in] Find the recorded ELISA data belonging to CD81K13 HC 07-hVH_1_3 / LC 5b-hVK_1_39-GA (antibody, V domains shown, human constant region) VH: QVQLVQSGAEVKKPGASVKVSCKASGYTFKDSYLHWVRQAPGQGLEWMGRIDTGNGNVKFDPKFQGRVTITTDTSASTAYMELSSLRSEDTAVYYCAPYGYGFHSWGQGTLVTVSS VL: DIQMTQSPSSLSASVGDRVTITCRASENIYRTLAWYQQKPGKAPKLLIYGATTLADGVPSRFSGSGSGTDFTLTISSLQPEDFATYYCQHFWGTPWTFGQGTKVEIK and report it.
[out] 0.363

[in] Using the record for CD81K13 HC 06-hVH_1_3 / LC 04-hVK_1_9 (antibody, V domains shown, human constant region) VH: QVQLVQSGAEVKKPGASVKVSCKASGYTFKDSYLHWVRQAPGQRLEWMGRIDTGNGNVKFDPKFQGRVTITTDTSASTAYMELSSLRSEDTAVYYCAPYGYGFHSWGQGTLVTVSS VL: DIQLTQSPSFLSASVGDRVTITCRASENIYRTLAWYQQKPGKAPKLLIYAATTLASGVPSRFSGSGSGTEFTLTISSLQPEDFGTYYCQHFWGTPWTFGQGTKVEIK , report its ELISA data.
[out] 0.371

[in] # get_value(readout='ELISA data', item= CD81K13 HC 07-hVH_1_3 / LC 05-hVK_1_39 (antibody, V domains shown, human constant region) VH: QVQLVQSGAEVKKPGASVKVSCKASGYTFKDSYLHWVRQAPGQGLEWMGRIDTGNGNVKFDPKFQGRVTITTDTSASTAYMELSSLRSEDTAVYYCAPYGYGFHSWGQGTLVTVSS VL: DIQMTQSPSSLSASVGDRVTITCRASENIYRTLAWYQQKPGKAPKLLIYAATTLASGVPSRFSGSGSGTDFTLTISSLQPEDFATYYCQHFWGTPWTFGQGTKVEIK )
[out] 0.4

[in] Field request: ELISA data | item: CD81K13 HC 5b-hVH_1_69 / LC 05-hVK_1_39 (antibody, V domains shown, human constant region) VH: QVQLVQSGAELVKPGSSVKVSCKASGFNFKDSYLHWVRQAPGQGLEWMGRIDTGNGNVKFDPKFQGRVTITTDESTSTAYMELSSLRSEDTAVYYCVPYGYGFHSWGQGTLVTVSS VL: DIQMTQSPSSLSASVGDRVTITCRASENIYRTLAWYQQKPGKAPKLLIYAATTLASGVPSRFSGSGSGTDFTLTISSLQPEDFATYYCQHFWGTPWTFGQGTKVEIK
[out] 0.905

[in] Fill in the blank: the reported ELISA data of CD81K13 HC 5b-hVH_1_69-GA / LC 07-hVK_1_27 (antibody, V domains shown, human constant region) VH: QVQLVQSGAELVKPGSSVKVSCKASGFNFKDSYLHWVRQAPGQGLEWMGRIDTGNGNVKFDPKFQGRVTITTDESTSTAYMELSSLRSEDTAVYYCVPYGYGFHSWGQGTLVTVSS VL: DIQMTQSPSSLSASVGDRVTITCRASENIYRTLAWYQQKPGKVPKLLIYAATTLASGVPSRFSGSGSGTDFTLTISSLQPEDVGTYYCQKFWGTPWTFGQGTKVEIK is ____.
[out] 0.11

[in] Can you share its ELISA data? I mean this binder: CD81K13 HC 06-hVH_1_3 / LC 07-hVK_1_27 (antibody, V domains shown, human constant region) VH: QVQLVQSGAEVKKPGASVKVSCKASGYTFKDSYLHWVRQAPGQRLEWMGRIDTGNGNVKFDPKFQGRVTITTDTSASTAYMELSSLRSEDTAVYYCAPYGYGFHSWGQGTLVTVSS VL: DIQMTQSPSSLSASVGDRVTITCRASENIYRTLAWYQQKPGKVPKLLIYAATTLASGVPSRFSGSGSGTDFTLTISSLQPEDVGTYYCQKFWGTPWTFGQGTKVEIK
[out] 0.078

[in] Which ELISA data value belongs to CD81K13 HC CD81K13 / LC 06-hVK_1_39 (antibody, V domains shown, human constant region) VH: EVRLHQSAAQLVQPGASVRLSCTTSGFNFKDSYLHWVKQRPAQGLEWIGRIDTGNGNVKFDPKFQDKATITTDIPSMTAYLHLSNLTSEDTAVYYCVPYGYGFHSWGDGTTLTVSS VL: DIQMTQSPSSLSASVGDRVTITCRASENIYRTLAWYQQKPGKAPKLLIYAATTLASGVPSRFSGSGSGTDFTLTISSLQPEDFGTYYCQHFWGTPWTFGQGTKVEIK ?
[out] 0.811

The reported numbers originate from patent US20200377590A1.
